tested on: L1210 leukemia ip in BDF1 mice, survival T/C; assay: NCI In Vivo Anticancer Drug Screen. Data for tumor model L1210 Leukemia (intraperitoneal) in B6D2F1 (BDF1) mice; conditions: endpoint: mean survival time; dose: 200.0 mg/kg/injection; schedule: Q04DX002 (ip); vehicle: Klucel (hydroxypropylcellulose) (HPC); higher = longer survival
Toxic doses and inconclusive results are not listed.
OBSERVED_PROPERTY: T/C

{"COMPOUND": "CC(=O)OC1CCC2(C)C(=CCC3C2CCC2(C)c4c(c(-c5ccccc5)nn4-c4ccccc4)CC32)C1 (configuration not stated)", "EXPERIMENTAL_RESULT": "90 % of control"}
{"COMPOUND": "CC(=O)Nc1ccc(Cl)c(F)c1Cl", "EXPERIMENTAL_RESULT": "93 % of control"}
{"COMPOUND": "NC(CC(=O)O)C(=O)O (configuration not stated)", "EXPERIMENTAL_RESULT": "98 % of control"}
{"COMPOUND": "c1ccc(-c2c3ccccc3c(-c3ccccc3)c3c(-c4ccccc4)c4ccccc4c(-c4ccccc4)c23)cc1", "EXPERIMENTAL_RESULT": "98 % of control"}
{"COMPOUND": "Cc1cccc(NCC(=O)NN)c1C", "EXPERIMENTAL_RESULT": "92 % of control"}
{"COMPOUND": "Nc1nc(N)nc(-c2ccccc2)n1", "EXPERIMENTAL_RESULT": "107 % of control"}
{"COMPOUND": "O=[N+]([O-])c1cc2ccccc2o1", "EXPERIMENTAL_RESULT": "93 % of control"}

###

Reported values of T/C for individual entries
tested on: L1210 leukemia ip in BDF1 mice, survival T/C; assay: NCI In Vivo Anticancer Drug Screen. Data for tumor model L1210 Leukemia (intraperitoneal) in B6D2F1 (BDF1) mice; conditions: endpoint: mean survival time; dose: 100.0 mg/kg/injection; schedule: Q01DX001 (ip); vehicle: Klucel (hydroxypropylcellulose) (HPC); higher = longer survival
Inconclusive results and toxic doses are left out.
OBSERVED_PROPERTY: T/C

{"COMPOUND": "C[n+]1nc2ccccc2c(=Nc2ccccc2[N+](=O)[O-])[n-]1", "TARGET_UNDER_TEST": "L1210 leukemia ip in BDF1 mice, survival T/C", "EXPERIMENTAL_RESULT": "93 % of control"}
{"COMPOUND": "CCOC(=O)CSC(=S)N1CCOCC1", "TARGET_UNDER_TEST": "L1210 leukemia ip in BDF1 mice, survival T/C", "EXPERIMENTAL_RESULT": "94 % of control"}
{"COMPOUND": "COc1cc(CNC(=O)NCCCl)cc(OC)c1OC", "TARGET_UNDER_TEST": "L1210 leukemia ip in BDF1 mice, survival T/C", "EXPERIMENTAL_RESULT": "96 % of control"}
{"COMPOUND": "COCC(O)C(OC)C(OC)C(C=O)NC(=O)NCCCl (centres undefined)", "TARGET_UNDER_TEST": "L1210 leukemia ip in BDF1 mice, survival T/C", "EXPERIMENTAL_RESULT": "102 % of control"}
{"COMPOUND": "CC1CCCCN1Cc1ccccc1COC(=O)c1cccc(Br)c1 (centres undefined)", "TARGET_UNDER_TEST": "L1210 leukemia ip in BDF1 mice, survival T/C", "EXPERIMENTAL_RESULT": "104 % of control"}
{"COMPOUND": "O=c1c(N=Nc2ccc(Cl)cc2)c(O)n(-c2ccc(I)cc2)c(=S)n1-c1ccccc1", "TARGET_UNDER_TEST": "L1210 leukemia ip in BDF1 mice, survival T/C", "EXPERIMENTAL_RESULT": "93 % of control"}
{"COMPOUND": "Cc1ccc(S(=O)(=O)NN=C(/C=C/c2ccccc2)/C=C/c2ccccc2)cc1", "TARGET_UNDER_TEST": "L1210 leukemia ip in BDF1 mice, survival T/C", "EXPERIMENTAL_RESULT": "107 % of control"}
{"COMPOUND": "CCN(C(=S)c1ccccc1)c1ccc(C(=O)OC)cc1", "TARGET_UNDER_TEST": "L1210 leukemia ip in BDF1 mice, survival T/C", "EXPERIMENTAL_RESULT": "100 % of control"}
{"COMPOUND": "NC(Cc1ccccc1)c1ccc2oc3ccccc3c2c1 (centres undefined)", "TARGET_UNDER_TEST": "L1210 leukemia ip in BDF1 mice, survival T/C", "EXPERIMENTAL_RESULT": "96 % of control"}
{"COMPOUND": "c1ccc2cc(C3OCCCO3)ccc2c1", "TARGET_UNDER_TEST": "L1210 leukemia ip in BDF1 mice, survival T/C", "EXPERIMENTAL_RESULT": "94 % of control"}
{"COMPOUND": "CCCCCn1cnc2c(=O)[nH]c(N)nc21", "TARGET_UNDER_TEST": "L1210 leukemia ip in BDF1 mice, survival T/C", "EXPERIMENTAL_RESULT": "103 % of control"}
{"COMPOUND": "O=C1c2ccccc2-c2c(O)cccc21", "TARGET_UNDER_TEST": "L1210 leukemia ip in BDF1 mice, survival T/C", "EXPERIMENTAL_RESULT": "94 % of control"}
{"COMPOUND": "CN(c1ccccc1)c1cc(=O)[nH]c(=O)[nH]1", "TARGET_UNDER_TEST": "L1210 leukemia ip in BDF1 mice, survival T/C", "EXPERIMENTAL_RESULT": "95 % of control"}
{"COMPOUND": "COC1OC2COC(c3ccccc3)OC2C2C1N2C#N (centres undefined)", "TARGET_UNDER_TEST": "L1210 leukemia ip in BDF1 mice, survival T/C", "EXPERIMENTAL_RESULT": "100 % of control"}
{"COMPOUND": "O=C(O)CNCc1ccc2c(c1)OCCO2", "TARGET_UNDER_TEST": "L1210 leukemia ip in BDF1 mice, survival T/C", "EXPERIMENTAL_RESULT": "108 % of control"}
{"COMPOUND": "CC(=O)Nc1cc(Cl)c2[nH]cnc2n1", "TARGET_UNDER_TEST": "L1210 leukemia ip in BDF1 mice, survival T/C", "EXPERIMENTAL_RESULT": "101 % of control"}
{"COMPOUND": "CC(=O)Nc1ccc(C)cc1", "TARGET_UNDER_TEST": "L1210 leukemia ip in BDF1 mice, survival T/C", "EXPERIMENTAL_RESULT": "94 % of control"}
{"COMPOUND": "CN(C)/N=C(\\Cc1ccccc1)c1ccccc1", "TARGET_UNDER_TEST": "L1210 leukemia ip in BDF1 mice, survival T/C", "EXPERIMENTAL_RESULT": "99 % of control"}
{"COMPOUND": "O=C1OC(=O)c2cccc3cccc1c23", "TARGET_UNDER_TEST": "L1210 leukemia ip in BDF1 mice, survival T/C", "EXPERIMENTAL_RESULT": "97 % of control"}
